Test system: T47D
Out of some 42,000 sequences screened, about 2,900 (6.9%) were called active. The entries come from a sample that favours actives as a whole. Entries with a potency or affinity are not part of this list.
Reported Property: GI50 (µM)
# output: bare number, implied unit µM

INSERT INTO measurements (substance, reported_property, unit_abbrev, value_reported) VALUES
  ('[Bis(aminomethyl)pentamethylenesilane]dichloropaltinum(II), CHEMBL2146202', 'GI50', 'µM', 1.34),
  ('CISPLATIN, CHEMBL11359', 'GI50', 'µM', 14),
  ('[Bis(aminomethyl)tetramethylenesilane]dichloropaltinum(II), CHEMBL2146205', 'GI50', 'µM', 5),
  ('[Bis(aminomethyl)tetramethylenesilane]tetrachloropaltinum(IV), CHEMBL2146189', 'GI50', 'µM', 0.184);

Shift focus to the following entry.
Give the observed GI50 of [Bis(aminomethyl)dimethylsilane]tetrachloroplatinum(IV), CHEMBL2146190 for T47D.
14.6
